System: ACHN renal
Assay: NCI tumour cell line growth inhibition, 48 h
Measured TGI, listed per entry for reference.

>  <Molecule>
COc1ccc(C2=Nc3ccccc3NC(=O)C2)cc1

>  <TGI>
> 100 µM

$$$$
>  <Molecule>
C[n+]1c2ccccc2c(C(=O)Nc2ccc(S(=O)(=O)Nc3ccnn3-c3ccccc3)cc2)c2ccccc21

>  <TGI>
> 100 µM

$$$$
>  <Molecule>
C=CCOc1ccc(/C(N=Nc2ccc(Cl)cc2)=N/NC(=O)c2ccccc2)cc1OC

>  <TGI>
> 100 µM

$$$$
>  <Molecule>
CCCCCCCCCCCCCCCCN1CC2CCCCC2C1 (stereo not given)

>  <TGI>
31.1 µM

$$$$
>  <Molecule>
COC12OC3(C4OC41)C(C(=O)O[C@H]3CO[Si](C)(C)C(C)(C)C)C2C(=O)Oc1ccccc1 (stereo not given in full)

>  <TGI>
> 100 µM

$$$$
>  <Molecule>
Cc1nc2cccc(F)c2c(=O)n1C1CCCCNC1=O (stereo not given)

>  <TGI>
> 10 µM

$$$$
>  <Molecule>
COc1ccc(/C=C(/C#N)C(N)=O)cc1OC

>  <TGI>
> 100 µM

$$$$
>  <Molecule>
CC(=O)N1C(=O)/C(=C\C(=O)c2ccc([N+](=O)[O-])cc2)c2ccccc21

>  <TGI>
29.6 µM

$$$$
>  <Molecule>
COc1ccc(/C(C#N)=C/c2ccccc2OC)cc1

>  <TGI>
> 100 µM

$$$$
>  <Molecule>
COc1cccc(-n2ncc3c(N/N=C/c4ccc(C(=O)NCCN(C)C)cc4)ncnc32)c1

>  <TGI>
4.86 µM

$$$$

* * *

Test system: NCI-H460 lung
Measured GI50, listed per entry for reference.
Reported Endpoint: GI50

>  <Molecule>
CC(C)c1cc(-c2n[nH]c(=O)n2-c2ccc3c(ccn3C)c2)c(O)cc1O

>  <Measured Target>
NCI-H460 lung

>  <Measured Value>
< 15.7 nM

$$$$
>  <Molecule>
CCCC(C)c1cc(Cc2cc(Cl)cc(Cl)c2O)c(O)c(Cc2cc(Cl)cc(Cl)c2O)c1 (stereo unspecified)

>  <Measured Target>
NCI-H460 lung

>  <Measured Value>
1020 nM

$$$$
>  <Molecule>
O=c1cc(-c2ccccc2)[nH]c2ccccc12

>  <Measured Target>
NCI-H460 lung

>  <Measured Value>
398 nM

$$$$
>  <Molecule>
CN(C)CC(=O)Nc1ccc(Cn2nnc3c2C(=O)c2nnn(Cc4ccc(NC(=O)CN(C)C)cc4)c2C3=O)cc1

>  <Measured Target>
NCI-H460 lung

>  <Measured Value>
167 nM

$$$$
>  <Molecule>
COc1ccc2c(c1)cn1c3ccc(O)cc3nc(N)c21

>  <Measured Target>
NCI-H460 lung

>  <Measured Value>
131 nM

$$$$
>  <Molecule>
CCCCCCCCCCCCCCCCN1CC2CCCCC2C1 (stereo unspecified)

>  <Measured Target>
NCI-H460 lung

>  <Measured Value>
> 100000 nM

$$$$

* * *

System: KM12 colon
Experiment: NCI tumour cell line growth inhibition, 48 h

>  <Molecule>
CCCc1[nH]c(SCCCCCCCCSc2nc(-c3ccc(F)cc3)c(CCC)[nH]2)nc1-c1ccc(F)cc1

>  <Result Qualifier>
>

>  <TGI / µM>
100

$$$$
>  <Molecule>
CCCCCCCCCCCC(=O)OCC1OC(n2cc(F)c(=O)[nH]c2=O)C(NC(=O)OCc2ccccc2)C(OC(=O)CCCCCCCCCCC)C1O (configuration not stated)

>  <Result Qualifier>
>

>  <TGI / µM>
100

$$$$
>  <Molecule>
COc1ccc(/C=C2\NC(=S)N(CN3CCCCC3)C2=O)cc1

>  <Result Qualifier>
>

>  <TGI / µM>
100

$$$$
>  <Molecule>
COc1ccc2nc(N/N=C/C(C)=N/Nc3cc(C)c4cc(OC)ccc4n3)cc(C)c2c1

>  <Result Qualifier>
=

>  <TGI / µM>
44.1

$$$$
>  <Molecule>
CCCCCCCCCCCCCCCCN1CC2CCCCC2C1 (configuration not stated)

>  <Result Qualifier>
=

>  <TGI / µM>
19.7

$$$$
>  <Molecule>
CCNCCNc1c2ccccc2nc2ccccc12

>  <Result Qualifier>
=

>  <TGI / µM>
4.79

$$$$
>  <Molecule>
O=c1c2nn3c(=O)n(-c4ccccc4)c(=O)c3nn2c(=O)n1-c1ccccc1

>  <Result Qualifier>
>

>  <TGI / µM>
100

$$$$
>  <Molecule>
Nc1ccccc1C#C/C=C\C#Cc1cccs1

>  <Result Qualifier>
=

>  <TGI / µM>
25.6

$$$$
>  <Molecule>
CC1=C(C(=O)O)N2C(=O)[C@@H](NC(=O)C(c3ccc(O)cc3)N3CSC(=S)N(C(C)C)C3)C2SC1 (some centres not stated)

>  <Result Qualifier>
>

>  <TGI / µM>
100

$$$$
>  <Molecule>
COc1ccc(-c2ccc(/C=N/n3c(COc4ccc(Cl)cc4Cl)nn(CN4CCOCC4)c3=S)o2)c([N+](=O)[O-])c1

>  <Result Qualifier>
=

>  <TGI / µM>
32.6

$$$$
>  <Molecule>
NC(=O)c1cc2cc(Cl)cc(Cl)c2oc1=Nc1ccc(F)cc1

>  <Result Qualifier>
>

>  <TGI / µM>
100

$$$$
>  <Molecule>
NNC(=O)/C(=C/c1ccc(Cl)cc1Cl)NC(=O)c1ccccc1

>  <Result Qualifier>
>

>  <TGI / µM>
100

$$$$

Where these numbers come from: PubChem BioAssay (NCI)
